- ASSAYED_SYSTEM: 5-HT2A receptors (Rattus norvegicus, UniProt P14842)
- Sequence (P14842 whole entry): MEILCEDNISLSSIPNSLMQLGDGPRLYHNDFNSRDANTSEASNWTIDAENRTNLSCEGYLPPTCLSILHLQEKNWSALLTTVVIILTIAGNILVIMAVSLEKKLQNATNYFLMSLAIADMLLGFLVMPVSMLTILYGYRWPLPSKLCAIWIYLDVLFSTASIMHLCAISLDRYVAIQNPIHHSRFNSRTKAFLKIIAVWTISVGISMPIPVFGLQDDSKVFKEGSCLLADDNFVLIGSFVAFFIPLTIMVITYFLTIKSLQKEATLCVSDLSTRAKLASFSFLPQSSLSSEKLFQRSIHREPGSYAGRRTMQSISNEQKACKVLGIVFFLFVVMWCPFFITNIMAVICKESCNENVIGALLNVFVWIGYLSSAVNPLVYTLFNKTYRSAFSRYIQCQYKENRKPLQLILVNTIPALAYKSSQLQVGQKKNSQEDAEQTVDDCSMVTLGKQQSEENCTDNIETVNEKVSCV
- MEASUREMENT_DESCRIPTION: in-vitro affinity to 5-HT2A receptors, displacement of [3H]ketanserine (Example A1)
- Format: binding
- STATED_CONDITIONS: read-out: HT2A IC50
- Text: The 5-HT2A receptors are exposed both to [^3H]ketanserine (a substance which is known for its affinity to the receptor) and also to the test compound. The decrease in the affinity of [^3H]ketanserine to the receptor is an indication of the affinity of the test substance to the 5-HT2A receptor.
REPORTED_PROPERTY: log10(IC50) (log10 of the value in nM)
Note the log scale: values are log10 of IC50 expressed in nM.

The following compounds have reported results that may help.
test_smiles=N#CCNCc1cnn(-c2ccc(-c3ccccc3)cc2)c1-c1ccccc1F result_value=2.45
test_smiles=Fc1ccccc1-c1c(CN2CCCCC2)cnn1-c1ccc(-c2ccccc2)cc1 result_value=1.48
test_smiles=CCOC(=O)N1CCN(Cc2cnn(-c3ccc(-c4ccccc4)cc3)c2-c2ccccc2F)CC1 result_value=1.76
test_smiles=Fc1ccccc1-c1c(CNCCc2c[nH]cn2)cnn1-c1ccc(-c2ccccc2)cc1 result_value=2.23
test_smiles=Cc1cccc(-c2ccc(-n3ncc(CN4CCN(C)CC4)c3-c3ccccc3F)cc2)c1 result_value=2.34

Fill blank: measured log10(IC50) of the compound CCN(CC)Cc1cnn(-c2ccc(-c3ccc(F)cc3)cc2)c1-c1ccc(Cl)cc1 is ____.
2.34

Fill blank: measured log10(IC50) of the compound CN1CCN(Cc2cnn(-c3ccc(-c4ccc(F)cc4)cc3)c2-c2ccc(F)cc2)CC1 is ____.
1.40

Fill blank: measured log10(IC50) of the compound Fc1ccc(-c2ccc(-n3ncc(CN4CCN(C5CCCC5)CC4)c3-c3ccccc3Cl)cc2)cc1 is ____.
2.41

Fill blank: measured log10(IC50) of the compound COCCCNCc1cnn(-c2ccc(-c3ccccc3)cc2)c1-c1ccccc1F is ____.
1.53

###

- ASSAYED_SYSTEM: 5-HT2A receptors (Rattus norvegicus, UniProt P14842)
- MEASUREMENT_DESCRIPTION: in-vitro affinity to 5-HT2A receptors, displacement of [3H]ketanserine (Example A1)
- Type: binding
- STATED_CONDITIONS: target not given; description names affinity to 5-HT2A receptors; read-out: IC50
# Lookup of reported pIC50 keyed by entry
# reply with the number alone; pIC50 is -log10 of concentration in mol/L

compound="CN(CC(=O)OC(C)(C)C)Cc1cnn(-c2ccc(-c3ccccc3)cc2)c1-c1cccnc1 [(180)]" reported_property=pIC50 result_value=6.04

Fill blank: measured pIC50 of the compound Fc1ccccc1-c1c(CCN2CCOCC2)cnn1-c1ccc(-c2ccccc2)cc1 [(42)] is ____.
7.92

Fill blank: measured pIC50 of the compound CN(C)C1CCN(Cc2cnn(-c3ccc(-c4ccccc4)cc3)c2-c2ccccc2F)C1 (stereo not shown) [(167)] is ____.
6.64

Fill blank: measured pIC50 of the compound N#CCNCc1cnn(-c2ccc(-c3ccccc3)cc2)c1-c1ccccc1F [(124)] is ____.
6.55

Fill blank: measured pIC50 of the compound Fc1ccc(-c2ccc(-n3ncc(CNc4cnccn4)c3-c3ccccc3F)cn2)cc1 [(196)] is ____.
5.92

Fill blank: measured pIC50 of the compound COCCCNCc1cnn(-c2ccc(-c3ccccc3)cc2)c1-c1ccccc1F [(26)] is ____.
7.47

From: patent US20060264419A1
